Below, each of the molecules is paired with its reported Drug absorption value.
Species: Homo sapiens
experiment-description: Drug absorption in buccal cavity in human at pH 9.3 after 5 mins by UV spectrometry
Assay type: ADME, organism-based
stated-conditions: in vivo, other, pH 9.3, 5 min
Please respond with the number in % and leave the unit unwritten.

molecule: COc1cc(C(=O)O[C@@H]2CCC[C@@H]3CCN(C)C[C@@H]32)cc(OC)c1OC (mixture of isomers)
Drug absorption, %: 70.7

molecule: CN1CC[C@H]2CCC[C@@H](NC(=O)c3ccccc3)[C@@H]2C1 (mixture of isomers)
Drug absorption, %: 42.9

molecule: CN1CC[C@H]2CCC[C@@H](OC(=O)c3ccc(Cl)cc3)[C@H]2C1 (mixture of isomers)
Drug absorption, %: 86.5

molecule: CN1CC[C@H]2CCC[C@@H](OC(=O)c3ccccc3)[C@H]2C1 (relative stereo)
Drug absorption, %: 81.8

molecule: CN1CC[C@H]2CCC[C@@H](NC(=O)c3ccc(Cl)cc3)[C@H]2C1 (mixture of isomers)
Drug absorption, %: 43.2

// Drug absorption value for COc1ccccc1C(=O)N[C@@H]1CCC[C@@H]2CCN(C)C[C@H]21 (mixture of isomers) : 41.2

// Drug absorption value for COc1cc(C(=O)N[C@@H]2CCC[C@@H]3CCN(C)C[C@H]32)cc(OC)c1OC (mixture of isomers) : 31.1

###

experiment-description: Dissociation constant, pKa of the compound in 0.01 M potassium hydrogen phthalate
Assay type: physicochemical
reported-property: pKa

Consider the following illustrative entries.
compound: COc1ccccc1C(=O)N[C@@H]1CCC[C@@H]2CCN(C)C[C@H]21 (mixture of isomers)
pKa: 8.81
--
compound: CN1CC[C@H]2CCC[C@@H](NC(=O)c3ccccc3)[C@H]2C1 (mixture of isomers)
pKa: 9.18
--
compound: COc1ccc(C(=O)N[C@@H]2CCC[C@@H]3CCN(C)C[C@H]32)cc1OC (mixture of isomers)
pKa: 8.89
--
compound: COc1cc(C(=O)O[C@@H]2CCC[C@@H]3CCN(C)C[C@@H]32)cc(OC)c1OC (mixture of isomers)
pKa: 8.91
--
compound: CN1CC[C@H]2CCC[C@@H](NC(=O)c3ccc(Cl)c(Cl)c3)[C@H]2C1 (mixture of isomers)
pKa: 9.05

// pKa value for CN1CC[C@H]2CCC[C@@H](NC(=O)c3ccc(Cl)cc3)[C@@H]2C1 (mixture of isomers) : 8.83

// pKa value for COc1ccc(C(=O)N[C@@H]2CCC[C@@H]3CCN(C)C[C@@H]32)cc1 (mixture of isomers) : 9.19

###

experiment-description: Therapeutic index, ratio of LD50 for toxicity to ED50 for antiarrhythmic activity in ip dosed Swiss-Webster albino mouse
Format: organism-based, Heart
stated-conditions: in vivo, read-out: Ratio LD50/ED50
Binary call on selectivity ratio with cut-off 6: strictly below means Y, and equality or higher means N.

compound: COc1ccc(C(=O)N[C@@H]2CCC[C@@H]3CCN(C)C[C@@H]32)cc1 (mixture of isomers)
group: Y
--
compound: COc1ccccc1C(=O)N[C@@H]1CCC[C@@H]2CCN(C)C[C@H]21 (mixture of isomers)
group: Y
--
compound: CN1CC[C@H]2CCC[C@@H](NC(=O)c3ccc(Cl)cc3)[C@H]2C1 (mixture of isomers)
group: Y
--
compound: COc1ccccc1C(=O)N[C@@H]1CCC[C@@H]2CCN(C)C[C@@H]21 (mixture of isomers)
group: N
--
compound: CN1CC[C@H]2CCC[C@@H](NC(=O)c3ccc(Cl)c(Cl)c3)[C@@H]2C1 (mixture of isomers)
group: N

Continue with the next compound.
Ask | Field: below-cutoff. Rule: recorded selectivity ratio strictly less than 6. Subject: CN1CC[C@H]2CCC[C@@H](OC(=O)c3ccc(Cl)cc3)[C@H]2C1 (mixture of isomers)
Reply | Y
